Entries and their measured fold induction at 1 µM follow.
Test system: Ucp1
Test: UCP1 luciferase assay (Ucp1 up-regulation in differentiated inguinal adipocytes of Ucp1-luciferase knock-in mice)
Format: cell-based
Details: Mus musculus, Adipocyte, 48 h; at 1 μM; 2 days treatment; luciferase activity; read-out: Ucp1 activation fold/corresponding concentration
Please state the value as a number alone, without comment.

Consider the reported fold induction at 1 µM for these compounds:
> print(dat)
                                       smi  reported.value
1   CCCC(=O)Nc1ccc(-c2csc(Nc3ccccn3)n2)cc1             3.4
2  COc1ccc(-c2csc(Nc3cc4ccccc4cn3)n2)cc1OC             1.2
3     c1ccc(Nc2nc(-c3ccc4c(c3)OCO4)cs2)nc1             2.4
4  CS(=O)(=O)c1ccc(-c2csc(Nc3ccccn3)n2)cc1             3.9
5       COc1ccc(-c2nc(Nc3ccccn3)sc2C)cc1OC             1.6

INPUT: Given CC(=O)Nc1ccc(-c2csc(Nc3ccccn3)n2)cc1 , respond with its fold induction at 1 µM.
OUTPUT: 3.8

INPUT: Given Nc1ccc(-c2csc(Nc3ccccn3)n2)cc1 , respond with its fold induction at 1 µM.
OUTPUT: 3.7

INPUT: Given CN1CCN(C(=O)c2ccc(-c3csc(Nc4ccccn4)n3)cc2)CC1 , respond with its fold induction at 1 µM.
OUTPUT: 4

INPUT: Given O=C(c1ccc(-c2csc(Nc3ccccn3)n2)cc1)N1CCOCC1 , respond with its fold induction at 1 µM.
OUTPUT: 5.1

---

Entries and their measured fold induction at 3 µM follow.
Test system: Ucp1
Assay: UCP1 luciferase assay (Ucp1 up-regulation in differentiated inguinal adipocytes of Ucp1-luciferase knock-in mice)
Assay type: cell-based
Settings: Mus musculus, Adipocyte, 48 h; at 3 μM; 2 days treatment; luciferase activity; read-out: Ucp1 activation fold/corresponding concentration
Please state the value as a number alone, without comment.

Consider the reported fold induction at 3 µM for these compounds:
> print(dat)
                                   compound  system.tested       reported.property  reported.value
1  CCNC(=O)COc1ccc(-c2csc(Nc3ccccn3)n2)cc1 [Compound 47]           Ucp1  fold induction at 3 µM             2.4
2  Cc1ccc(-c2csc(Nc3ccccn3)n2)cc1 [Compound 21]           Ucp1  fold induction at 3 µM             2.9
3  CCOC(=O)COc1ccc(-c2csc(Nc3ccccn3)n2)cc1 [Compound 44]           Ucp1  fold induction at 3 µM             1.9
4  c1ccc(-c2csc(Nc3ccccn3)n2)cc1 [Compound 4, 4-phenyl-N-(pyridin-2-yl)thiazol-2-amine]           Ucp1  fold induction at 3 µM             4.1

Consider the additional compound presented here.
INPUT: Given COc1ccc(-c2csc(Nc3nc4ccc(C)cc4s3)n2)cc1OC [Compound 14] , respond with its fold induction at 3 µM.
OUTPUT: 2.4

---

Tested on: Ucp1
Assay: UCP1 luciferase assay (Ucp1 up-regulation in differentiated inguinal adipocytes of Ucp1-luciferase knock-in mice)
Type: cell-based
Conditions: Mus musculus, Adipocyte, 48 h; at 3 μM; 2 days treatment; luciferase activity; read-out: Ucp1 activation fold/corresponding concentration
Please note: label 1 applies when fold induction at 3 µM is 3 or greater, and label 0 applies otherwise.

Solved entries:
> print(dat)
                                        smi    group
1     CC(=O)OCc1ccc(-c2csc(Nc3ccccn3)n2)cc1  label 0
2  c1ccc(CNc2ccc(-c3csc(Nc4ccccn4)n3)cc2)cc1  label 0
3      COC(=O)c1ccc(-c2csc(Nc3ccccn3)n2)cc1  label 1
4  CC(=O)N1CCC(c2ccc(-c3csc(Nc4ccccn4)n3)cc2)CC1  label 1
5   CC(C)(C)CNc1ccc(-c2csc(Nc3ccccn3)n2)cc1  label 0
6  CCOC(=O)[C@@H]1CCCN1C(=O)c1ccc(-c2csc(Nc3ccccn3)n2)cc1  label 1
7         COc1ccc(-c2csc(Nc3cccnc3)n2)cc1OC  label 0
8    FC(F)(F)Oc1ccc(-c2csc(Nc3ccccn3)n2)cc1  label 1

INPUT: Hi team, for Cc1ccc(-c2csc(Nc3ccccn3)n2)cc1C , is the recorded fold induction at 3 µM at or above 3?
OUTPUT: label 0

INPUT: Hi team, for CCN(CC)C(=O)c1ccc(-c2csc(Nc3ccccn3)n2)cc1 , is the recorded fold induction at 3 µM at or above 3?
OUTPUT: label 0

INPUT: Hi team, for COc1ccc(-c2csc(Nc3cccc(C)n3)n2)cc1OC , is the recorded fold induction at 3 µM at or above 3?
OUTPUT: label 1

---

Test system: Ucp1
Experiment: UCP1 luciferase assay (Ucp1 up-regulation in differentiated inguinal adipocytes of Ucp1-luciferase knock-in mice)
Format: cell-based
Details: Mus musculus, Adipocyte, 48 h; at 1 μM; 2 days treatment; luciferase activity; read-out: Ucp1 activation fold/corresponding concentration
REPORTED_PROPERTY: fold induction at 1 µM
Please state the value as a number alone, without comment.

Consider the reported fold induction at 1 µM for these compounds:
> print(dat)
                                        smi       reported.property  reported.value
1     COc1cc(-c2csc(Nc3ccccn3)n2)cc(OC)c1OC  fold induction at 1 µM             1.9
2    COc1ccc(-c2csc(NC(=O)c3ccccc3)n2)cc1OC  fold induction at 1 µM             1.1
3  O=[N+]([O-])c1ccc(-c2csc(Nc3ccccn3)n2)cc1  fold induction at 1 µM             3.8

Consider the additional compound presented here.
INPUT: Provide fold induction at 1 µM, tested on Ucp1, for N#Cc1ccc(-c2csc(Nc3ccccn3)n2)cc1 .
OUTPUT: 3.9

---

Test system: Ucp1
Experiment: UCP1 luciferase assay (Ucp1 up-regulation in differentiated inguinal adipocytes of Ucp1-luciferase knock-in mice)
Assay type: cell-based
Conditions: Mus musculus, Adipocyte, 48 h; at 3 μM; 2 days treatment; luciferase activity; read-out: Ucp1 activation fold/corresponding concentration
Please note: Yes applies when fold induction at 3 µM is 2 or greater, and No applies otherwise.

Solved entries:
> print(dat)
                                   compound  group
1  CCC(=O)Nc1ccc(-c2csc(Nc3ccccn3)n2)cc1 [Compound 38]    Yes
2  COc1ccccc1-c1csc(Nc2ccccn2)n1 [Compound 24]    Yes
3  c1ccc(Nc2nc(-c3ccc(CN4CCCCC4)cc3)cs2)nc1 [Compound 72]     No
4  COCCOCCNC(=O)c1ccc(-c2csc(Nc3ccccn3)n2)cc1 [Compound 62]    Yes

Here's the next entry for you.
INPUT: Hi team, for Brc1cc(N2CCOCC2)ccc1-c1csc(Nc2ccccn2)n1 [Compound 28] , is the recorded fold induction at 3 µM at or above 2?
OUTPUT: Yes

---

System: Ucp1
Assay: UCP1 luciferase assay (Ucp1 up-regulation in differentiated inguinal adipocytes of Ucp1-luciferase knock-in mice)
Type: cell-based
Conditions: Mus musculus, Adipocyte, 48 h; at 3 μM; 2 days treatment; luciferase activity; read-out: Ucp1 activation fold/corresponding concentration
Please note: TRUE applies when fold induction at 3 µM is 2 or greater, and FALSE applies otherwise.

Solved entries:
> print(dat)
                                   molecule  system.tested  group
1  c1ccc(Nc2nc(-c3ccc(-c4ccncc4)cc3)cs2)nc1 [Compound 79]           Ucp1  FALSE
2  COc1ccc(-c2csc(NC(=O)c3ccccn3)n2)cc1OC [Compound 32]           Ucp1   TRUE

Here's the next entry for you.
INPUT: Hi team, for COc1ccc(-c2csc(Nc3ccccn3)n2)cc1OC [Compound 1] , is the recorded fold induction at 3 µM at or above 2?
OUTPUT: TRUE

---

Tested on: Ucp1
Experiment: UCP1 luciferase assay (Ucp1 up-regulation in differentiated inguinal adipocytes of Ucp1-luciferase knock-in mice)
Type: cell-based
Conditions: Mus musculus, Adipocyte, 48 h; at 3 μM; 2 days treatment; luciferase activity; read-out: Ucp1 activation fold/corresponding concentration
Entries and their measured fold induction at 3 µM follow.

Consider the reported fold induction at 3 µM for these compounds:
> print(dat)
                                 smi  system.tested  reported.value
1  COc1ccc(-c2csc(Nc3ccccc3)n2)cc1OC           Ucp1               3
2    Brc1ccc(-c2csc(Nc3ccccn3)n2)cc1           Ucp1               3

INPUT: Provide fold induction at 3 µM, tested on Ucp1, for O=C(COc1ccc(-c2csc(Nc3ccccn3)n2)cc1)N1CCOCC1 .
OUTPUT: 1.7

INPUT: Provide fold induction at 3 µM, tested on Ucp1, for c1ccc(Nc2nc(-c3ccc(-c4ccsc4)cc3)cs2)nc1 .
OUTPUT: 1.8

INPUT: Provide fold induction at 3 µM, tested on Ucp1, for CC(C)NC(=O)c1ccc(-c2csc(Nc3ccccn3)n2)cc1 .
OUTPUT: 3.5

INPUT: Provide fold induction at 3 µM, tested on Ucp1, for O=C(Nc1ccncc1)c1ccc(-c2csc(Nc3ccccn3)n2)cc1 .
OUTPUT: 1.1

INPUT: Provide fold induction at 3 µM, tested on Ucp1, for O=C(NO)c1ccc(-c2csc(Nc3ccccn3)n2)cc1 .
OUTPUT: 3

INPUT: Provide fold induction at 3 µM, tested on Ucp1, for c1ccc(-c2ccc(-c3csc(Nc4ccccn4)n3)cc2)cc1 .
OUTPUT: 2.4

INPUT: Provide fold induction at 3 µM, tested on Ucp1, for CN(C)c1ccc(-c2csc(Nc3ccccn3)n2)cc1 .
OUTPUT: 5.1

All figures here come from patent US10532987B2.
